System: blood pressure
Assay: Blood pressure of genetically hypertensive rats, P.O. 50 mg/kg
Format: in vivo
Settings: Rattus norvegicus, po, 50 mg./kg. orally, tested as hydrochloride salts, + increase, - decrease in b.p.
Condition met if change in vivo at 50 mg/kg is below -20%. Condition not met if not; exact matches included in Condition not met.

molecule: O=C1CN2Cc3c(Cl)cccc3N=C2N1 [Compound 2]
category.label: Condition met
//
molecule: O=C1CN2Cc3cc(Cl)ccc3N=C2N1 [Compound 3]
category.label: Condition not met
//
molecule: Cc1cccc2c1CN1CCC(=O)NC1=N2 [Compound 22]
category.label: Condition met
//
molecule: Cc1cccc2c1N=C1NC(=O)CN1C2 [Compound 12]
category.label: Condition met
//
molecule: O=C1CN2Cc3ccccc3N=C2N1 [Compound 1]
category.label: Condition met
//
molecule: O=C1CCN2Cc3ccccc3N=C2N1 [Compound 19]
category.label: Condition met
//
molecule: O=C1CN2Cc3ccc(Cl)cc3N=C2N1 [Compound 4]
category.label: Condition not met
//
molecule: COc1cccc2c1N=C1NC(=O)CN1C2 [Compound 15]
category.label: Condition not met
//
molecule: O=C1CN2Cc3cc(Br)ccc3N=C2N1 [Compound 6]
category.label: Condition not met
//
molecule: COc1cc2c(cc1OC)N=C1NC(=O)CCN1C2 [Compound 28]
category.label: Condition not met

* * *

Tested on: blood pressure
Assay: Blood pressure of genetically hypertensive rats, P.O. 50 mg/kg
Assay type: in vivo
Settings: Rattus norvegicus, po, 50 mg./kg. orally, tested as hydrochloride salts, + increase, - decrease in b.p.
As shown below, each of these compounds has a reported change in vivo at 50 mg/kg value.

compound: Cc1ccc2c(c1)CN1CCC(=O)NC1=N2
unit.tag: %
change in vivo at 50 mg/kg: -7
--
compound: O=C1CN2Cc3cc4c(cc3N=C2N1)OCO4
unit.tag: %
change in vivo at 50 mg/kg: -25
--
compound: COc1ccc2c(c1)CN1CC(=O)NC1=N2
unit.tag: %
change in vivo at 50 mg/kg: -19
--
compound: CC1c2ccccc2N=C2NC(=O)CN21 (stereo not shown)
unit.tag: %
change in vivo at 50 mg/kg: -28
--
compound: Cc1cccc2c1C(C)N1CC(=O)NC1=N2 (stereo not shown)
unit.tag: %
change in vivo at 50 mg/kg: -49
--
compound: O=C1CN2Cc3cc([N+](=O)[O-])ccc3N=C2N1
unit.tag: %
change in vivo at 50 mg/kg: 5
--
compound: COc1cc2c(cc1OC)N=C1NC(=O)CN1C2
unit.tag: %
change in vivo at 50 mg/kg: 26

* * *

Each entry below carries its reported change in vivo at 50 mg/kg.
System: blood pressure
Experiment: Blood pressure of genetically hypertensive rats, P.O. 50 mg/kg
Assay type: in vivo
Conditions: Rattus norvegicus, po, 50 mg./kg. orally, tested as hydrochloride salts, + increase, - decrease in b.p.
value.type: change in vivo at 50 mg/kg (%)

molecule: COc1cccc2c1N=C1NC(=O)CCN1C2
value.type: change in vivo at 50 mg/kg
unit.tag: %
result.number: 1

molecule: Cc1cccc2c1CN1CC(=O)NC1=N2
value.type: change in vivo at 50 mg/kg
unit.tag: %
result.number: -37

molecule: O=C1CCN2Cc3c(Cl)cccc3N=C2N1
value.type: change in vivo at 50 mg/kg
unit.tag: %
result.number: -12

molecule: Cc1ccc2c(c1)C(C)N1CC(=O)NC1=N2 (centres unmarked)
value.type: change in vivo at 50 mg/kg
unit.tag: %
result.number: -34

molecule: O=C1CN2Cc3ccc(F)cc3N=C2N1
value.type: change in vivo at 50 mg/kg
unit.tag: %
result.number: -27

molecule: Nc1ccc2c(c1)CN1CC(=O)NC1=N2
value.type: change in vivo at 50 mg/kg
unit.tag: %
result.number: -10

molecule: O=C1CN2Cc3c(ccc4ccccc34)N=C2N1
value.type: change in vivo at 50 mg/kg
unit.tag: %
result.number: -59

molecule: COc1cccc2c1CN1CCC(=O)NC1=N2
value.type: change in vivo at 50 mg/kg
unit.tag: %
result.number: -5

molecule: Cc1cccc2c1N=C1NC(=O)CCN1C2
value.type: change in vivo at 50 mg/kg
unit.tag: %
result.number: -19

molecule: O=C1CN2Cc3cccc(Cl)c3N=C2N1
value.type: change in vivo at 50 mg/kg
unit.tag: %
result.number: -10

molecule: COc1ccc2c(c1)CN1CCC(=O)NC1=N2
value.type: change in vivo at 50 mg/kg
unit.tag: %
result.number: -19

These entries and their values trace back to patent US3932407A.
